Recorded EC50 by entry
target: T1, 人的PD-1胞外区与人Fc融合蛋白(PD-1-ECD-hFc) (human, UniProt Q15116 25-170); assay: ELISA, PD-1-ECD-hFc coated, goat anti-mouse IgG detection
T1 construct: extracellular domain; Coated on ELISA plates; also called PD-1-hFc; not shown: human Fc
T1 sequence (Q15116 25-170): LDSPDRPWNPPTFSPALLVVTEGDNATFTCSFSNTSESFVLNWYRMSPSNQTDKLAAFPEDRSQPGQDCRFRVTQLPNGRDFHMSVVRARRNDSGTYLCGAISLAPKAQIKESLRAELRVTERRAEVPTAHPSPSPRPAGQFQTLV
Write the value in ng/mL as a bare number.

Please review the entries below; each comes with its answer.
binder: 10A10 (antibody, V domains shown, Mouse monoclonal antibody purified from hybridoma supernatant by Protein A; also called 鼠源PD-1单克隆抗体10A10; PD-1杂交瘤抗体10A10) VH: EVKLVESGGDLVKPGGSLKLSCAASGFTFNYYDISWVRQTPEKRLEWVATISGGGRYTYYLDNVQGRFTISRDNAKNILYLQMNSLRSDDTALYFCASPYEGAMDYWGQGTSVTVSS VL: DIVMTQSHKFMSTSIGDGVNITCKASQDVGTAVAWYQQKPGQSPKLLNKWASTRHTGVPDRFTGSGSGTDFTLTINNVQSEDLADYFCQQYSTFPYTFGGGTNLELK
EC50 [ng/mL]: 1.14

binder: 9H8 (antibody, V domains shown, Mouse monoclonal antibody purified from hybridoma supernatant by Protein A; also called 鼠源PD-1单克隆抗体9H8; PD-1杂交瘤抗体9H8) VH: EVKLVESGGGLVQPGGSLKLSCATSGFTFSDYYMYWVRQTPEKRLEWVAQISNGGGNTYYPDTVKGRFTISRDNAKNTLYLQMSRLKSEDTAIYYCSKSYYKYDGWYFDVWGAGTTVTVSS VL: DIVLTQSPASLAVSLGQRATISCRASESVEYSRTSLIQWYQLKPGQPPKLLIYAASYVESGVPDRFSGSGSGTEFSFNIHPVEEDDIAMYFCQQARKVPWTFGGGTNLEIK
EC50 [ng/mL]: 0.511

// query Answer with the recorded EC50 of 8D4 (antibody, V domains shown, Mouse monoclonal antibody purified from hybridoma supernatant by Protein A; also called 鼠源PD-1单克隆抗体8D4; PD-1杂交瘤抗体8D4) VH: EVQLQQSGTVLARPGASVKMSCKTSGYTFTNFWMHWVKQRPGQGLDWIGAIFPGNTDTTYNRKFKDKAKLTAVTSASTAYMELSSLTNEDSAVYYCTRNHYGLDYWGQGTSVTVSS VL: DIVLTQSPASLAVSLGQRATISCRASESVSIHGTHLMHWYQQKPGQPPKLLIYIASNLGSGVPARFSGSGSETDFTLNIHPVEEEDAATYFCQQSIEDPWTFGGGTKLEIK only.
// result 2.61
